Where do these numbers come from? They come from patent US11236055B2.

Entries and their EC50
Molecular target: mouse TGR5 receptor (Mus musculus, UniProt Q80SS6)
Construct: expressed in transfected cells; host or cells: HEK293-EBNA (293 c18, ATCC CRL10852), Hygromycin B selection
Sequence (Q80SS6 1-329): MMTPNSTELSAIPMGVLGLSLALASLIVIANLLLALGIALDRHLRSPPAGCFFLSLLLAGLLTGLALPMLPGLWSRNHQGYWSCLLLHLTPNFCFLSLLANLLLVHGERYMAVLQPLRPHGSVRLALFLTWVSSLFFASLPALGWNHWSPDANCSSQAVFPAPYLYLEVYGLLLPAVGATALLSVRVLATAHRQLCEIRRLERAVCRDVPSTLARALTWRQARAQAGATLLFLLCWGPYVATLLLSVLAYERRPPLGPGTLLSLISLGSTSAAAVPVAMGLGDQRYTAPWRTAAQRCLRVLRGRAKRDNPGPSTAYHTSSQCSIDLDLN
Assay: Mouse TGR5 cAMP production assay (HTRF, Cisbio cAMP HiRange)
Assay type: cell-based
Conditions: HEK293-EBNA cells overexpressing mouse TGR5, HTRF cAMP HiRange; coded A-D

{"molecule": "Cc1cnccc1-c1cccc([C@H](C)N(CCCCNc2c(NCCS(=O)(=O)O)c(=O)c2=O)S(=O)(=O)c2ccccc2C(F)(F)F)c1", "EC50": "100 to 999 nM"}
{"molecule": "CC(C)(NS(=O)(=O)c1ccccc1C(F)(F)F)c1cccc(-c2ccc3nccn3c2)c1 [Compound 5AJ]", "EC50": "1000 to 30000 nM"}
{"molecule": "CCc1cnccc1-c1cccc([C@@H](C)NS(=O)(=O)c2ccccc2C(F)(F)F)c1 [Compound 5AS]", "EC50": "100 to 999 nM"}
{"molecule": "Cc1cnccc1-c1cccc(C(C)(C)NS(=O)(=O)c2cccc(Cl)c2Cl)c1 [Compound 2BV]", "EC50": "< 100 nM"}
{"molecule": "Cc1cnccc1-c1cccc([C@H](C)N(CCCC(=O)O)S(=O)(=O)c2cccc(Cl)c2C)c1 [Compound 16]", "EC50": "< 100 nM"}
{"molecule": "Cc1cnccc1-c1cccc(C2(N(CCCC(=O)O)S(=O)(=O)c3cccc(Cl)c3C)COC2)c1 [Compound 16AL]", "EC50": "100 to 999 nM"}
{"molecule": "CNC(=O)C[C@H](NS(=O)(=O)c1ccccc1C(F)(F)F)c1cccc(-c2ccncc2C)c1 [Compound 5AZ]", "EC50": "100 to 999 nM"}
{"molecule": "Cc1cnccc1-c1cccc(C(C)(C)N(CCCN)S(=O)(=O)c2cccc(Cl)c2C)c1 [Compound 23]", "EC50": "1000 to 30000 nM"}
{"molecule": "Cc1cnccc1-c1cccc(C2CNCCN2S(=O)(=O)c2ccccc2C(F)(F)F)c1 (racemic) [Compound 44]", "EC50": "100 to 999 nM"}
{"molecule": "CCc1cnccc1-c1cccc(C2CN(C(=O)CCC(=O)NCCCS(=O)(=O)O)CCN2S(=O)(=O)c2cccc(Cl)c2C)c1 (stereo not shown) [Compound 53AC]", "EC50": "< 100 nM"}
{"molecule": "Cc1cnccc1-c1cccc([C@H](CCCC(=O)O)NS(=O)(=O)c2ccccc2C(F)(F)F)c1 [Compound 19AA]", "EC50": "100 to 999 nM"}
{"molecule": "Cc1cnccc1-c1cccc([C@H](CCCC#N)NS(=O)(=O)c2ccccc2C(F)(F)F)c1 [Compound 5BC]", "EC50": "< 100 nM"}
{"molecule": "COc1cnccc1-c1cccc(C(NS(=O)(=O)c2ccccc2C(F)(F)F)c2ccccc2)c1 (stereo not shown) [Compound 1CC]", "EC50": "100 to 999 nM"}
{"molecule": "CCc1cnccc1-c1cccc(C(C)(C)N(CCCC(=O)NCCS(=O)(=O)O)S(=O)(=O)c2cccc(Cl)c2C)c1 [Compound 20AC]", "EC50": "< 100 nM"}
{"molecule": "Cc1cnccc1-c1cccc([C@H](C)N(CCCCC(=O)NCCOCCNC(=O)CS(=O)(=O)O)S(=O)(=O)c2cccc(Cl)c2C)c1 [Compound 31]", "EC50": "< 100 nM"}
{"molecule": "CCOC(=O)CCN/C(=N/C#N)NCCCN(C(C)(C)c1cccc(-c2ccncc2C)c1)S(=O)(=O)c1cccc(Cl)c1C [Compound 25A]", "EC50": "100 to 999 nM"}
{"molecule": "Cc1cnccc1-c1cccc(C2CN(C(=O)CS(=O)(=O)O)CCN2S(=O)(=O)c2cccc(Cl)c2Cl)c1 (stereo not shown) [Compound 49AC]", "EC50": "< 100 nM"}
{"molecule": "CN(C)c1cc(-c2cccc(C(C)(C)NS(=O)(=O)c3ccccc3C(F)(F)F)c2)ccn1 [Compound 6AB]", "EC50": "1000 to 30000 nM"}
{"molecule": "CC(C)(NS(=O)(=O)c1cccc(C(F)(F)F)c1)c1cccc(-c2ccncc2CO)c1 [Compound 5AE]", "EC50": "1000 to 30000 nM"}
{"molecule": "Cc1cnccc1-c1cccc(C(C)(C)N(CCCNC(=O)NCCS(=O)(=O)O)S(=O)(=O)c2cccc(Cl)c2C)c1 [Compound 29AA]", "EC50": "< 100 nM"}
{"molecule": "Cc1cnccc1-c1cccc(C2(N(CCCC(=O)NCCS(=O)(=O)O)S(=O)(=O)c3cccc(Cl)c3C)COC2)c1 [Compound 20BN]", "EC50": "100 to 999 nM"}
{"molecule": "Cc1cnccc1-c1cccc(C(C)(C)N(CCCNC(=O)CS(=O)(=O)O)S(=O)(=O)c2cccc(Cl)c2C)c1 [Compound 31AB]", "EC50": "< 100 nM"}
{"molecule": "Cc1cnccc1-c1cccc([C@H](C)N(CCCC(=O)NCCC(=O)NCC(=O)O)S(=O)(=O)c2cccc(Cl)c2C)c1 [Compound 21AM]", "EC50": "100 to 999 nM"}
{"molecule": "Cc1cnccc1-c1cccc([C@H](C)N(CCCCC(=O)NC[C@@H](O)[C@H](O)[C@@H](O)[C@@H](O)CO)S(=O)(=O)c2cccc(Cl)c2C)c1 [Compound 20AI]", "EC50": "100 to 999 nM"}
{"molecule": "Cc1cnccc1-c1cccc([C@H]2C[C@@H](C(=O)O)CCN2S(=O)(=O)c2ccccc2C(F)(F)F)c1 (relative stereo) [Compound 55]", "EC50": "100 to 999 nM"}
{"molecule": "Cc1cnccc1-c1cccc(C2CNCCN2S(=O)(=O)c2cccc(Cl)c2C)c1 (stereo not shown) [Compound 43AE]", "EC50": "100 to 999 nM"}
{"molecule": "Cc1cnccc1-c1cccc([C@H](C)N(CCCC(=O)NCCS(N)(=O)=O)S(=O)(=O)c2cccc(Cl)c2C)c1 [Compound 20AJ]", "EC50": "100 to 999 nM"}
{"molecule": "CC(=O)Nc1cc(-c2cccc(C(C)(C)NS(=O)(=O)c3cccc(C(F)(F)F)c3)c2)ccn1 [Compound 9]", "EC50": "1000 to 30000 nM"}

* * *

Entries and their pEC50
target: human TGR5 receptor (Homo sapiens); test: Human TGR5 cAMP production assay; settings: human TGR5, luminescent cAMP assay; coded A-D; read-out: Human TGR5 Lum. cAMP Activity (EC50)
Sequence (Q8TDU6 whole entry): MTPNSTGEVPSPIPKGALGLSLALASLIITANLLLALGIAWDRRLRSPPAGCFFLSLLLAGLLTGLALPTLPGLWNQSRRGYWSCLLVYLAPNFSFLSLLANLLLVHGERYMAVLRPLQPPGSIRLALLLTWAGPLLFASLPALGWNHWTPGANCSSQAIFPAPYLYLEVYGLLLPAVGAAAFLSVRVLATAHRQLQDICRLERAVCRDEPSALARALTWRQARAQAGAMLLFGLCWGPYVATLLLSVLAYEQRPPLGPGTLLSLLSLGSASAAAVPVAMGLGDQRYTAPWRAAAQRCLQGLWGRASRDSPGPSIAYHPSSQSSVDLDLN
pEC50: −log10 of the molar value.

{"compound": "COc1cnccc1-c1cccc([C@H](C)NS(=O)(=O)c2ccccc2C(F)(F)F)c1 [Compound 2BQ]", "pEC50": "> 7.00"}
{"compound": "Cc1cnccc1-c1cccc(C2CN(CCCC(=O)O)CCN2S(=O)(=O)c2cccc(Cl)c2C)c1 (stereo not drawn) [Compound 52]", "pEC50": "6.00 to 7.00"}
{"compound": "Cc1cnccc1-c1cccc([C@H](C)N(CCCC(=O)NCCS(=O)(=O)O)S(=O)(=O)c2cccc(Cl)c2C)c1 [Compound 21AG]", "pEC50": "> 7.00"}
{"compound": "COc1cnccc1-c1cc(CNS(=O)(=O)c2cccc(C(F)(F)F)c2)ccn1 [Compound 1BS]", "pEC50": "4.52 to 6.00"}
{"compound": "COc1cnccc1-c1cccc(C(C)(C)NS(=O)(=O)c2cc(Cl)ccc2Cl)c1 [Compound 2BE]", "pEC50": "> 7.00"}
{"compound": "Cc1cnsc1-c1cccc([C@H](C)N(CCCC(=O)O)S(=O)(=O)c2cccc(Cl)c2C)c1 [Compound 16AJ]", "pEC50": "4.52 to 6.00"}
{"compound": "Cc1cnccc1-c1cccc(C(C)(C)N(CCCC(=O)NC[C@@H](O)[C@H](O)[C@@H](O)[C@@H](O)CO)S(=O)(=O)c2cccc(Cl)c2C)c1 [Compound 20AF]", "pEC50": "> 7.00"}
{"compound": "COc1cnccc1-c1ccnc(CNS(=O)(=O)c2cccc(C(F)(F)F)c2)c1 [Compound 1BR]", "pEC50": "4.52 to 6.00"}
{"compound": "O=S(=O)(NCc1cccc(-c2ccncc2)c1)c1cccc(Br)c1 [Compound 2AQ]", "pEC50": "6.00 to 7.00"}
{"compound": "Cc1cnccc1-c1cccc(C(C)(C)NS(=O)(=O)c2ccccc2C)c1 [Compound 2BX]", "pEC50": "> 7.00"}
{"compound": "Cc1cnccc1-c1cccc(C(C)(C)N(CCCC(=O)NCCS(=O)(=O)O)S(=O)(=O)c2cccc(Cl)c2C)c1 [Compound 20AG]", "pEC50": "> 7.00"}
{"compound": "CCc1cnccc1-c1cccc(C(C)(C)N(CCCC(=O)NCCS(=O)(=O)O)S(=O)(=O)c2ccccc2C(F)(F)F)c1 [Compound 20]", "pEC50": "> 7.00"}
{"compound": "Cc1noc(C)c1-c1cccc(CNS(=O)(=O)c2cc(C(F)(F)F)ccc2F)c1 [Compound 2AF]", "pEC50": "4.52 to 6.00"}
{"compound": "CCc1cnccc1-c1cccc([C@H](C)N(CCCC(=O)NCCS(=O)(=O)O)S(=O)(=O)c2ccccc2C(F)(F)F)c1 [Compound 20BF]", "pEC50": "> 7.00"}
{"compound": "Cc1cnccc1-c1cccc(C(CCC#N)NS(=O)(=O)c2ccccc2C(F)(F)F)c1 (stereo not drawn) [Compound 6AD]", "pEC50": "> 7.00"}
